- test-target: Tyrosine-protein kinase JAK1 (Homo sapiens)
- Sequence (P23458 whole entry): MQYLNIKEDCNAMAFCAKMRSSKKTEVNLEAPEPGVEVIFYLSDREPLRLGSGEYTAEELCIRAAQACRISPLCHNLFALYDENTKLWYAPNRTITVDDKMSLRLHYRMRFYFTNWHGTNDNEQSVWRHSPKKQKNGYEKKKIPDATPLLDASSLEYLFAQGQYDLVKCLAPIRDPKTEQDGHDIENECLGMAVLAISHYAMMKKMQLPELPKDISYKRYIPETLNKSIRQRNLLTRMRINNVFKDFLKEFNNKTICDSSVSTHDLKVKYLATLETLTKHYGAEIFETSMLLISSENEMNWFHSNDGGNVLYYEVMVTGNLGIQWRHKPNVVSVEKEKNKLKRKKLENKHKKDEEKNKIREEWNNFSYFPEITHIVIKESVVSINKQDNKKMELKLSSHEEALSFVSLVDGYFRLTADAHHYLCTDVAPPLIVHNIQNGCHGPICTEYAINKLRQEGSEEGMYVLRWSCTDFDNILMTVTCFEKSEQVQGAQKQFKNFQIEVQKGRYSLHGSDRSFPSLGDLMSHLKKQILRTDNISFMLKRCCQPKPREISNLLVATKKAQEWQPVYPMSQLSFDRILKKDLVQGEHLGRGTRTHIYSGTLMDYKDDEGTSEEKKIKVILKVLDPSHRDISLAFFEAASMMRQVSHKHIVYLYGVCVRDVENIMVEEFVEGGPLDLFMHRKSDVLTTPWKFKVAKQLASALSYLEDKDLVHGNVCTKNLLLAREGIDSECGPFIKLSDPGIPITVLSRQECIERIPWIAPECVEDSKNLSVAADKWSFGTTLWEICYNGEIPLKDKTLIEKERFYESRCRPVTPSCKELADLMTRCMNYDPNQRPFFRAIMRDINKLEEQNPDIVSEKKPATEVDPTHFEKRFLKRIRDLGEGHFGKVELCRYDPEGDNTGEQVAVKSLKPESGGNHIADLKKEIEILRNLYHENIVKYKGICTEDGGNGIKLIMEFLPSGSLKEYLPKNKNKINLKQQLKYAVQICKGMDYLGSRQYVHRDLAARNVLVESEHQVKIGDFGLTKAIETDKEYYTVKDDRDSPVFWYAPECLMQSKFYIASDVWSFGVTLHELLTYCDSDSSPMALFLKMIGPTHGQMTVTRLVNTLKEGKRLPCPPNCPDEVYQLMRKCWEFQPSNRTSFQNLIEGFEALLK
- measurement-protocol: Inhibition of N-terminal GST-tagged human recombinant JAK1 (438 to end residues) extracted from baculovirus infected in Sf9 cells using KKHTDDGYMPMSPGVA as substrate preincubated for 15 min followed by substrate addition and measured after 1 hr by ADP-Glo kinase assay
outcome-measure: pIC50
Keep it numeric: pIC50 is minus log10 of the concentration in mol/L.

Lab note: need pIC50 for COc1nn(C)cc1Nc1nccc(-c2c[nH]c3c(NC(=O)[C@@H](C)N4CCN(C)CC4)cccc23)n1 on Tyrosine-protein kinase JAK1 (Homo sapiens), anyone have it?
7.09

###

- test-target: UniProt P52333
- Sequence (P52333 whole entry): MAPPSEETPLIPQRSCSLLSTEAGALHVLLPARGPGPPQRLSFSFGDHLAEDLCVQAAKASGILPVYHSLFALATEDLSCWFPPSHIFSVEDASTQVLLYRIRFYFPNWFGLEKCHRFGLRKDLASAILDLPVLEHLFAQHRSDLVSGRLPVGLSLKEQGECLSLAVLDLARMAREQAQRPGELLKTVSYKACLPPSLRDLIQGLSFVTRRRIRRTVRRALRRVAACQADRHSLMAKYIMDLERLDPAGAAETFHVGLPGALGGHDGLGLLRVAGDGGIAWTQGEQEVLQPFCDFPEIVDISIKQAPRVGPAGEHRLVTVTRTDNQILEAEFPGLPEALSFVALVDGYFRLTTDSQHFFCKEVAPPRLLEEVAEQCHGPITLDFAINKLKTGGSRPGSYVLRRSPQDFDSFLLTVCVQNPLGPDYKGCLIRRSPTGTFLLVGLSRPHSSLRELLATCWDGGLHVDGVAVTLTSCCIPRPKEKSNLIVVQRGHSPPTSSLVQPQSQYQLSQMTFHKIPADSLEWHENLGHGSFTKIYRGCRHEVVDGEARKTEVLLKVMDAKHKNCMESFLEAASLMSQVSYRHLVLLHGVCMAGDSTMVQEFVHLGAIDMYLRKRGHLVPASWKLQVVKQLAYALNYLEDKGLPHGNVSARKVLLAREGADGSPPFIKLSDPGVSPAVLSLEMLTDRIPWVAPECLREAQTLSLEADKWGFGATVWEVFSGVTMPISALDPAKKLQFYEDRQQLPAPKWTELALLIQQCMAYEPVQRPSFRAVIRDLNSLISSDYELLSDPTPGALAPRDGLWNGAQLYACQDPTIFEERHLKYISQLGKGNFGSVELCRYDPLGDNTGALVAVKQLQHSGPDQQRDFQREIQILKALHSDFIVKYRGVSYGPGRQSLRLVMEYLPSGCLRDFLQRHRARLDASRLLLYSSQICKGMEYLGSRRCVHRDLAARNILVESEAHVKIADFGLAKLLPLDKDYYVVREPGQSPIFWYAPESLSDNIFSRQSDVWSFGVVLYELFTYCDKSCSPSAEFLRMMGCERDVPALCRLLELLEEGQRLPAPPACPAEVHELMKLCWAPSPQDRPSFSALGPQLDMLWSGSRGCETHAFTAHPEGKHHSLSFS
- measurement-protocol: Inhibition of N-terminal GST-tagged human recombinant JAK3 (781 to end residues) extracted from baculovirus infected in Sf9 cells using Poly(4:1 Glu, Tyr) as substrate preincubated for 15 min followed by substrate addition and measured after 1 hr by ADP-Glo kinase assay
pIC50 by entry:
Keep it numeric: pIC50 is minus log10 of the concentration in mol/L.

COc1nn(C)cc1Nc1ncc2scc(-c3cccc(NC(C)=O)c3)c2n1    7.30
Cc1nn(C)cc1Nc1ncc2scc(-c3cccc(NC(=O)[C@@H](C)N4CCN(C)CC4)c3)c2n1    5.31
COc1nn(C)cc1Nc1ncc2scc(-c3cccc(NC(=O)[C@H]4CCCN4C(C)=O)c3)c2n1    6.61

Now turn to the next molecule.
Which pIC50 is listed for COc1nn(C)cc1Nc1ncc2scc(-c3cccc(NC(=O)[C@@H](C)N4CCN(C)CC4)c3)c2n1 ?
5.40
